- System: HCT-116 colon
- EXPERIMENT: NCI-60 one-dose screen, 48 h (100 = growth as untreated, 0 = no growth, -100 = all killed)
- CONDITION_SUMMARY: 10 µM unless noted
This is part of a sample that, as a whole, favours compounds with a hit. Of some 83,000 tested, about 20% had one in any assay. Active and inactive are the calls of the source. Rule for the calls: active = growth percent below 10; inactive = the rest.
This section presents compounds with their documented growth values.
RESULT_TYPE: growth

{"COMPOUND": "Cc1cn(-c2cc(NC(=O)c3ccc(C)c(Nc4nccc(-c5cnccn5)n4)c3)cc(C(F)(F)F)c2)cn1", "MEASUREMENT": "42.6% (inactive)"}
{"COMPOUND": "Cn1c(=O)c(F)c(Nc2ccc(I)cc2F)c2c(=O)n(C[C@@H](O)CO)cnc21", "MEASUREMENT": "9.17% (active)"}
{"COMPOUND": "O=C1OCC2=C1C(c1cccc(F)c1)c1cc3c(cc1N2CCO)OCCO3 (stereo not given)", "MEASUREMENT": "11.2% (inactive)"}
{"COMPOUND": "N[C@@H]1CCCN(c2c(/C=C3\\SC(=O)NC3=O)cccc2-c2ccccc2)C1", "MEASUREMENT": "50.6% (inactive)"}
{"COMPOUND": "Cc1ccc(N=C2CSc3nnc(-c4csc5c4CCCC5)n3N2)cc1", "MEASUREMENT": "13.9% (inactive)"}

Origin of values: PubChem BioAssay (NCI)
